Data origin: patent US20250032484A1

Test system: VA patients with PTSD (PTSD symptoms, PTSD Checklist)
Test: TreeScan nested case-control study of medications associated with PTSD symptom improvement (PTSD Checklist) in VA records
Assay type: in vivo, human
Conditions: baseline PCL 38 or higher, PTSD diagnosis within 30 days, without any concurrent evidence-based treatment
measuredAttribute: OBS = Observed Cases
Respond numerically, and do not add a unit to the figure.

[ask] Look up OBS = Observed Cases for this molecule: "O=c1n(CCCN2CCN(c3cccc(Cl)c3)CC2)nc2ccccn12"
[reply] 992

[ask] Need OBS = Observed Cases, item "COC(=O)N[C@H](C(=O)N1CCC[C@H]1c1nc2cc(F)c([C@H]3CC[C@H](c4cc5[nH]c([C@@H]6CCCN6C(=O)[C@@H](NC(=O)OC)[C@@H](C)OC)nc5cc4F)N3c3cc(F)c(N4CCC(c5ccc(F)cc5)CC4)c(F)c3)cc2[nH]1)[C@@H](C)OC"
[reply] 14

[ask] Entry CN(C)CCCC1(c2ccc(F)cc2)OCc2cc(C#N)ccc21 (stereo not shown) : reported OBS = Observed Cases = ?
[reply] 785

[ask] Sample CN1CCCC1c1cccnc1 (stereo not shown) — what was its OBS = Observed Cases?
[reply] 610
